# EC50 listing for each entry below
# target: T1, PCSK9-BP15-His6 (human, UniProt Q8NBP7 31-692, biotin on the BP15 biotin receiving peptide)
# T1 construct: It holds a signal peptide (underlined in print); also called WT PCSK9; bio-WT-PCSK9
# protocol: ELISA, bio-WT-PCSK9 captured on streptavidin plate
All answers are understood in µg/mL, so give the number only.

binder="h001-5 (antibody, human IgG1, V domains shown, Variable regions only; also called h001_VH.1A + h001_VL.1) VH: QVQLVQSGAEVKKPGASVKVSCKASGYTFNDYWMHWVRQAPGQGLEWMGYINPSSGFTKYHQNFKDRVTMTRDTSISTAYMELSRLRSDDTAVYYCARQYDYDEDWYFDVWGQGTTVTVSS VL: DIQMTQSPSSLSASVGDRVTITCKSSQSLLNSRTRKNFLAWYQQKPGKAPKLLIYWASTRESGVPSRFSGSGSGTDFTLTISSLQPEDFATYYCKQSFNLFTFGQGTKLEIK" testvalue=0.0141

// EC50 lookup, binder = h001-18 (antibody, human IgG1, V domains shown, Variable regions only; also called h001_VH.1D + h001_VL.1A) VH: QVQLVQSGAEVKKPGASVKVSCKASGYTFNDYWMHWVRQAPGQGLEWMGYINPSSGFTKYHQNFKDRVTMTADKSISTAYMELSRLTSDDTAVYYCARQYDYDEDWYFDVWGQGTTVTVSS VL: DIQMTQSPSSLSASVGDRVTITCKSSQSLLNSRTRKNFLAWYQQKPGKAPKLLIYWASTRESGVPDRFSGSGSGTDFTLTISSLQPEDFATYYCKQSFNLFTFGQGTKLEIK , result: 0.0147

// h001-24 (antibody, human IgG1, V domains shown, Variable regions only; also called h001_VH.1E + h001_VL.1C) VH: QVQLVQSGAEVKKPGASVKVSCKASGYTFNDYWMHWVKQAPGQGLEWIGYINPSSGFTKYHQNFKDKATLTADKSISTAYMELSRLTSDDTAVYYCARQYDYDEDWYFDVWGQGTTVTVSS VL: DIVMSQSPSSLSASVGDRVTITCKSSQSLLNSRTRKNFLAWYQQKPGKSPKLLIYWASTRESGVPDRFSGSGSGTDFTLTISSLQPEDFATYYCKQSFNLFTFGQGTKLEIK : EC50 value = 0.0092

Summary for this binder, h001-6 (antibody, human IgG1, V domains shown, Variable regions only; also called h001_VH.1A + h001_VL.1A) VH: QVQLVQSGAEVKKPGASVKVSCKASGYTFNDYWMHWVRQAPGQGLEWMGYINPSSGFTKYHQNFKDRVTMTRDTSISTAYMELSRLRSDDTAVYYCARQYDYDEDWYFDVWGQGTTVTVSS VL: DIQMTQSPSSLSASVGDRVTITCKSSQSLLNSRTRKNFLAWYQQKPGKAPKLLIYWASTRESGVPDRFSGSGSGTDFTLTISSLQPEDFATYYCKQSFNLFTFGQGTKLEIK : EC50 is 0.01

Short answer for h001-21 (antibody, human IgG1, V domains shown, Variable regions only; also called h001_VH.1E + h001_VL.1) VH: QVQLVQSGAEVKKPGASVKVSCKASGYTFNDYWMHWVKQAPGQGLEWIGYINPSSGFTKYHQNFKDKATLTADKSISTAYMELSRLTSDDTAVYYCARQYDYDEDWYFDVWGQGTTVTVSS VL: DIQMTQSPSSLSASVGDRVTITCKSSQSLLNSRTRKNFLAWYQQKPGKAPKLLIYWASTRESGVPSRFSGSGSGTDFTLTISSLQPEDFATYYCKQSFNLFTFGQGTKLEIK : EC50 was 0.0145
